tgt: Acetyl-CoA Hydrolase from S. cerevisiae (Saccharomyces cerevisiae, UniProt P32316)
Sequence (P32316 whole entry): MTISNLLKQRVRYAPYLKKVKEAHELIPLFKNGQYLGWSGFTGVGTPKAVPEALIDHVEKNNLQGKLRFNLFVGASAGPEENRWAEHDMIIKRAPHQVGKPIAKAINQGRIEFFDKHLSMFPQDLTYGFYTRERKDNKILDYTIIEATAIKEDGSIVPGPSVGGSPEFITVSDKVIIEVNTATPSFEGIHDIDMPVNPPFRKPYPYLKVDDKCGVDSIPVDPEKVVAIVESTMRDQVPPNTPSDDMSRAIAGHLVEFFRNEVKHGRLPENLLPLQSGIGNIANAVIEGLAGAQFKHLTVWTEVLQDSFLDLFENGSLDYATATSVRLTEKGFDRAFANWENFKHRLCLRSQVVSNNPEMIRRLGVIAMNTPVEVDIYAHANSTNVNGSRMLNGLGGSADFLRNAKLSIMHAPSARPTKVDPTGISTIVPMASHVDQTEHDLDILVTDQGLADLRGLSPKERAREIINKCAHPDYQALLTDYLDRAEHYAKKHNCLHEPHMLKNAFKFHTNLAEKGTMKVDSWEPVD
experimental.protocol: biochemical
experimental.conditions: pH 7.4, read-out: Enzyme Activity (%)
outcome.measure: remaining activity at 10000 µM
Kindly report the value followed by its unit.

# count of solved cases: 2
{"columns": ["compound", "remaining activity at 10000 µM"],
 "data": [
  ["NC(=O)C1=CN([C@@H]2O[C@H](COP(=O)(O)OP(=O)(O)OC[C@H]3O[C@@H](n4cnc5c(N)ncnc54)[C@H](OP(=O)(O)O)[C@@H]3O)[C@@H](O)[C@H]2O)C=CC1 [βNADPH]", "96%"],
  ["Nc1ncnc2c1ncn2[C@@H]1O[C@H](COP(=O)(O)O)[C@@H](O)[C@H]1O [AMP]", "81%"]
]}

Provide the reported remaining activity at 10000 µM (system: Acetyl-CoA Hydrolase from S. cerevisiae (Saccharomyces cerevisiae, UniProt P32316)) for NC(=O)c1ccc[n+]([C@@H]2O[C@H](COP(=O)([O-])OP(=O)(O)OC[C@H]3O[C@@H](n4cnc5c(N)ncnc54)[C@H](O)[C@@H]3O)[C@@H](O)[C@H]2O)c1 [βNAD]
95%

Provide the reported remaining activity at 10000 µM (system: Acetyl-CoA Hydrolase from S. cerevisiae (Saccharomyces cerevisiae, UniProt P32316)) for Nc1ncnc2c1ncn2[C@@H]1O[C@H](COP(=O)(O)OP(=O)(O)O)[C@@H](O)[C@H]1O [ADP]
91%

Provide the reported remaining activity at 10000 µM (system: Acetyl-CoA Hydrolase from S. cerevisiae (Saccharomyces cerevisiae, UniProt P32316)) for NC(=O)C1=CN([C@@H]2O[C@H](COP(=O)(O)OP(=O)(O)OC[C@H]3O[C@@H](n4cnc5c(N)ncnc54)[C@H](O)[C@@H]3O)[C@@H](O)[C@H]2O)C=CC1 [βNADH]
46%

Provide the reported remaining activity at 10000 µM (system: Acetyl-CoA Hydrolase from S. cerevisiae (Saccharomyces cerevisiae, UniProt P32316)) for Nc1ncnc2c1ncn2[C@@H]1O[C@H](COP(=O)(O)OP(=O)(O)OP(=O)(O)O)[C@@H](O)[C@H]1O [ATP]
96%

* * *

tgt: Acetyl-CoA Hydrolase from S. cerevisiae (Saccharomyces cerevisiae, UniProt P32316)
experimental.protocol: biochemical
experimental.conditions: pH 7.4, read-out: Enzyme Activity (%)
As shown below, each of these compounds has a reported remaining activity at 100 µM value.
Answer format: numeric, % implied, no suffix.

# count of solved cases: 5
{"columns": ["compound", "outcome.measure", "reported.measurement"],
 "data": [
  ["CCCC(=O)SCCNC(=O)CCNC(=O)[C@H](O)C(C)(C)COP(=O)(O)OP(=O)(O)OC[C@H]1O[C@@H](n2cnc3c(N)ncnc32)[C@H](O)[C@@H]1OP(=O)(O)O [Butyryl-CoA]", "remaining activity at 100 µM", 95],
  ["CC(=O)SCCNC(=O)CCNC(=O)[C@H](O)C(C)(C)COP(=O)(O)OP(=O)(O)OC[C@H]1O[C@@H](n2cnc3c(N)ncnc32)[C@H](O)[C@@H]1OP(=O)(O)O [Acetyl-CoA, acetyl coenzyme A]", "remaining activity at 100 µM", 66],
  ["Nc1ncnc2c1ncn2[C@@H]1O[C@H](COP(=O)(O)OP(=O)(O)O)[C@@H](O)[C@H]1O [ADP]", "remaining activity at 100 µM", 98],
  ["Nc1ncnc2c1ncn2[C@@H]1O[C@H](COP(=O)(O)O)[C@@H](O)[C@H]1O [AMP]", "remaining activity at 100 µM", 96],
  ["CC(C)(COP(=O)(O)OP(=O)(O)OC[C@H]1O[C@@H](n2cnc3c(N)ncnc32)[C@H](O)[C@@H]1OP(=O)(O)O)[C@@H](O)C(=O)NCCC(=O)NCCSC(=O)CCC(=O)O [Succinyl-CoA]", "remaining activity at 100 µM", 92]
]}

Give reported remaining activity at 100 µM value for CCC(=O)SCCNC(=O)CCNC(=O)[C@H](O)C(C)(C)COP(=O)(O)OP(=O)(O)OC[C@H]1O[C@@H](n2cnc3c(N)ncnc32)[C@H](O)[C@@H]1OP(=O)(O)O [Propionyl-CoA]
92
